methodDescription: Tmax in Balb/c mouse plasma at 100 mg/kg, po by LC-MS/MS analysis
Type: ADME, organism-based
Design: dose 100 mg/kg, route oral
observedProperty: Tmax (min)
Value expressed in min; do not type the unit.

### Prompt Read the entry `C[C@H]1Cc2ccccc2N1C(=O)Cc1nc(N2CCOCC2)cc(=O)[nH]1` and write its reported Tmax.
### Response 15

====

methodDescription: Half life in Beagle dog at 10 mg/kg, po
Type: ADME, organism-based, Canis lupus familiaris
Parameters: dose 10 mg/kg, route oral
conditionDetails: in vivo
observedProperty: half-life (h)
Return type: number; implicit unit h.

### Prompt Fill in half-life for record C[C@H]1Cc2ccccc2N1C(=O)Cc1nc(N2CCOCC2)cc(=O)[nH]1 [SAR-260301]
### Response 4.5

====

methodDescription: Solubility of the compound in phosphate buffer at pH 7.4 by HPLC analysis
conditionDetails: phosphate buffer
observedProperty: solubility (µM)
Report as a plain number; the unit µM is understood.

> print(dat)
                                   compound  observed
1  O=C(Cc1nc(N2CCOCC2)cc(=O)[nH]1)N1CCc2c1cccc2C(F)(F)F        12
2  CC1(C)CN(C(=O)Cc2nc(N3CCOCC3)cc(=O)[nH]2)c2ccccc21        46
3  O=C(Cc1nc(N2CCOCC2)cc(=O)[nH]1)N1CCc2c(-c3ccccn3)cccc21       110
4  O=C(Cc1nc(N2CCOCC2)cc(=O)[nH]1)N1CCc2ccccc21        12
5  O=C(Cc1nc(N2CCOCC2)cc(=O)[nH]1)N1CCc2c(Br)cccc21         2
6  O=C(Cc1nc(N2CCOCC2)cc(=O)[nH]1)N1CCc2cc(F)ccc21        31
7  CC1(C)Cc2ccccc2N1C(=O)Cc1nc(N2CCOCC2)cc(=O)[nH]1        46
8  O=C(Cc1nc(N2CCOCC2)cc(=O)[nH]1)N1CCc2cc(Cl)ccc21         3

### Prompt Assign solubility to the following record: `O=C(Cc1nc(N2CCOCC2)cc(=O)[nH]1)N1CCc2c(Cl)cccc21`
### Response 5

### Prompt Give solubility for the following compound: `COc1cccc2c1CCN2C(=O)Cc1nc(N2CCOCC2)cc(=O)[nH]1`
### Response 5

### Prompt Kindly indicate its recorded solubility. Item: `Cn1c(CC(=O)N2CCc3ccccc32)nc(N2CCOCC2)cc1=O`
### Response 36

### Prompt Identify measured solubility associated with `O=C(Cc1nc(N2CCOCC2)cc(=O)[nH]1)N1CCc2c(-c3ccncc3)cccc21`
### Response 69

### Prompt Quote solubility reported for `CN1CCN(Cc2cccc3c2CCN3C(=O)Cc2nc(N3CCOCC3)cc(=O)[nH]2)CC1` please.
### Response 4420

### Prompt State, in one line, measured solubility of `O=C(Cc1nc(N2CCOCC2)cc(=O)[nH]1)N1CCc2c(OC(F)(F)F)cccc21`
### Response 12

### Prompt Identify measured solubility corresponding to `Cc1cccc2c1CCN2C(=O)Cc1nc(N2CCOCC2)cc(=O)[nH]1`
### Response 3

### Prompt Please look at this compound and report its solubility: CC1CN(C(=O)Cc2nc(N3CCOCC3)cc(=O)[nH]2)c2ccccc21 (racemic)
### Response 3

### Prompt Look up and state reported solubility for `O=C(Cc1nc(N2CCOCC2)cc(=O)[nH]1)N1CCc2c(-c3cccnc3)cccc21`
### Response 60

### Prompt Fill in reported solubility for this entry: `C[C@@H]1Cc2ccccc2N1C(=O)Cc1nc(N2CCOCC2)cc(=O)[nH]1`
### Response 2500

### Prompt Return solubility for the following compound: `CN1CCN(c2cccc3c2CCN3C(=O)Cc2nc(N3CCOCC3)cc(=O)[nH]2)CC1`
### Response 1500

### Prompt Supply measured solubility of CC1Cc2ccccc2N1C(=O)Cc1nc(N2CCOCC2)cc(=O)[nH]1 (racemic) in your reply.
### Response 2750

====

methodDescription: Plasma concentration in SCID mouse xenografted with PTEN-deficient human PC3 cells at 100 mg/kg, po after 4 hrs
Assay type: ADME, organism-based, PC-3
Design: dose 100 mg/kg, route oral
observedProperty: concentration at 4 h (µM)
Kindly answer with a numeric value in µM, unit omitted.

### Prompt In one line, give reported concentration at 4 h of the entry `C[C@H]1Cc2ccccc2N1C(=O)Cc1nc(N2CCOCC2)cc(=O)[nH]1` .
### Response 14.2

====

methodDescription: Oral bioavailability in Balb/c mouse plasma at 100 mg/kg by LC-MS/MS analysis
Format: ADME, organism-based
observedProperty: bioavailability

### Prompt Quick one: give measured bioavailability for `C[C@H]1Cc2ccccc2N1C(=O)Cc1nc(N2CCOCC2)cc(=O)[nH]1`
### Response 55%

====

targetSystem: Phosphatidylinositol 4,5-bisphosphate 3-kinase catalytic subunit delta isoform (Homo sapiens)
Sequence (O00329 whole entry, canonical isoform): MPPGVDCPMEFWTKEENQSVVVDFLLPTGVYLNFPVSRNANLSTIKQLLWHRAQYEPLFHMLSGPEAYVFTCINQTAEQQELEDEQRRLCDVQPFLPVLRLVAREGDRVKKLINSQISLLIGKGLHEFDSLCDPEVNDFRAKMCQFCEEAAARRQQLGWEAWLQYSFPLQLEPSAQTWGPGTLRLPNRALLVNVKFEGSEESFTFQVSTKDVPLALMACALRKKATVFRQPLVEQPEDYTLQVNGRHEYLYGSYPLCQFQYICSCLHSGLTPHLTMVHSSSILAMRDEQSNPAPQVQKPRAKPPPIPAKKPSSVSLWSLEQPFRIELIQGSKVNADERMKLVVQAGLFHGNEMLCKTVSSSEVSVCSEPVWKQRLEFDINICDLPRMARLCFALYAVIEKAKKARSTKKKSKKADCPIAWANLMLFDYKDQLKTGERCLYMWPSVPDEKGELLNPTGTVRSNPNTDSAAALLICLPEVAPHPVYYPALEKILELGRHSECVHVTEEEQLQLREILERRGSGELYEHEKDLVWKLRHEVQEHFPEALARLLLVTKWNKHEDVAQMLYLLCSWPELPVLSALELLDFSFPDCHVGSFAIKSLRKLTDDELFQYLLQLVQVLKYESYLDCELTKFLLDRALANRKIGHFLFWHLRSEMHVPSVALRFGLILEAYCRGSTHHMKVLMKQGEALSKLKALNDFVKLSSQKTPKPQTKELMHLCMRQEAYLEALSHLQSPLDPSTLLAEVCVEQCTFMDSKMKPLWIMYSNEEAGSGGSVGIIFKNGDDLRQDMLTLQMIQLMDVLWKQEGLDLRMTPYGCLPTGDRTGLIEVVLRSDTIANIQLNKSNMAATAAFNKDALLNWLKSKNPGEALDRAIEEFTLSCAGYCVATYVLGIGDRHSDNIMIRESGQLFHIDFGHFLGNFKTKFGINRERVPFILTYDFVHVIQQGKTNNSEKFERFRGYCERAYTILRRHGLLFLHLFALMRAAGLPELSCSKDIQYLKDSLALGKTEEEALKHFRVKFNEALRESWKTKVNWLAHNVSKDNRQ
methodDescription: Inhibition of N-terminal ploy-His-tagged human PI3Kdelta expressed in baculovirus-infected sf9 cells using PI(4,5)P2 as substrate after 15 mins by HTRF assay
Some compounds, each annotated with its measured IC50.
Kindly provide the numeric value in nM only, without the unit symbol.

Example results:
> print(dat)
                          structureassmiles  measurementunits  observed
1  O=C(Cc1nc(N2CCOCC2)cc(=O)[nH]1)N1CCc2c(-c3ccncc3)cccc21                nM        22
2  Cn1c(CC(=O)N2CCc3ccccc32)nc(N2CCOCC2)cc1=O                nM       278
3  O=C(Cc1nc(N2CCOCC2)cc(=O)[nH]1)N1CCc2c1cccc2C(F)(F)F                nM        98
4  O=C(Cc1nc(N2CCOCC2)cc(=O)[nH]1)N1CCc2ccccc21                nM        28
5  CN1CCN(Cc2cccc3c2CCN3C(=O)Cc2nc(N3CCOCC3)cc(=O)[nH]2)CC1                nM         2
6  CC1(C)CN(C(=O)Cc2nc(N3CCOCC3)cc(=O)[nH]2)c2ccccc21                nM       278
7  O=C(Cc1nc(N2CCOCC2)cc(=O)[nH]1)N1CCc2c(F)cccc21                nM       122
8  O=C(Cc1nc(N2CCOCC2)cc(=O)[nH]1)N1CCc2cc(Cl)ccc21                nM      4130

### Prompt Return value of IC50 for input `O=C(Cc1nc(N2CCOCC2)cc(=O)[nH]1)N1CCc2c(-c3ccccc3)cccc21` , no commentary.
### Response 18

### Prompt Please report the measured IC50 for `O=C(Cc1nc(N2CCOCC2)cc(=O)[nH]1)N1CCc2c(Cl)cccc21`
### Response 21

====

methodDescription: Cmax in Balb/c mouse plasma at 3 mg/kg, iv by LC-MS/MS analysis
Assay type: ADME, organism-based
Parameters: dose 3 mg/kg, route intravenous
observedProperty: Cmax (ng/mL)
Could you give me the number in ng/mL? Just the number is fine.

### Prompt Please report Cmax for the following compound: `C[C@H]1Cc2ccccc2N1C(=O)Cc1nc(N2CCOCC2)cc(=O)[nH]1`
### Response 1870

====

targetSystem: DNA-dependent protein kinase catalytic subunit (Homo sapiens, UniProt P78527)
methodDescription: Inhibition of DNA-PK (unknown origin)
observedProperty: pIC50
Here pIC50 is given on a logarithmic scale as minus log10 of the concentration in mol/L.

### Prompt // fetch pIC50 given entry C[C@H]1Cc2ccccc2N1C(=O)Cc1nc(N2CCOCC2)cc(=O)[nH]1 [SAR-260301]
### Response 5.70

====

methodDescription: Volume of distribution at steady state in Balb/c mouse plasma at 3 mg/kg, iv by LC-MS/MS analysis
Format: ADME, organism-based
Parameters: dose 3 mg/kg, route intravenous
conditionDetails: read-out: Vdss
observedProperty: Vd (L/kg)
Number only, in L/kg; omit the unit.

### Prompt State, in one line, measured Vd of `C[C@H]1Cc2ccccc2N1C(=O)Cc1nc(N2CCOCC2)cc(=O)[nH]1`
### Response 1

====

targetSystem: Cytochrome P450 3A4 (Homo sapiens, UniProt P08684)
Sequence (P08684 whole entry): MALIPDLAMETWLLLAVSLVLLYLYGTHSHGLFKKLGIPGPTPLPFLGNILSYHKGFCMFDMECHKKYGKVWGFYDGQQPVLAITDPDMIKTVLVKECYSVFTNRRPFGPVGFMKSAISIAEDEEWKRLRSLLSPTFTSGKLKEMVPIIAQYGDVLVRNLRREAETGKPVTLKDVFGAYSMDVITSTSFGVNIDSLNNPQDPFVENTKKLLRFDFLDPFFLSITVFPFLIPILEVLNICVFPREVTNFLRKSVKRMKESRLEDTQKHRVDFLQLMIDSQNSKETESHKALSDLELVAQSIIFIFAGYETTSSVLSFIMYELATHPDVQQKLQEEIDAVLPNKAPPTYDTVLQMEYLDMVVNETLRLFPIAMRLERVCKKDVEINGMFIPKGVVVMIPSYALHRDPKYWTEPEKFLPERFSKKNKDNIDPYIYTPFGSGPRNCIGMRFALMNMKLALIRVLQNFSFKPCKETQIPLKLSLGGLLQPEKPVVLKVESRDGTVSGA
methodDescription: Inhibition of recombinant human CYP3A4
observedProperty: IC50 (µM)
State the answer as a number, implicitly in µM.

These solved cases illustrate the format of a correct answer.
> print(dat)
                          structureassmiles  observed
1  CC1(C)CN(C(=O)Cc2nc(N3CCOCC3)cc(=O)[nH]2)c2ccccc21        40
2  O=C(Cc1nc(N2CCOCC2)cc(=O)[nH]1)N1CCc2c(-c3ccncc3)cccc21        31
3  O=C(Cc1nc(N2CCOCC2)cc(=O)[nH]1)N1CCc2cc(F)ccc21        40
4  O=C(Cc1nc(N2CCOCC2)cc(=O)[nH]1)N1CCc2ccccc21        40

### Prompt Using the record for `O=C(Cc1nc(N2CCOCC2)cc(=O)[nH]1)N1CCc2c(-c3cccnc3)cccc21` , state its measured IC50.
### Response 40

### Prompt Output measured IC50 for this item: `O=C(Cc1nc(N2CCOCC2)cc(=O)[nH]1)N1CCc2c(OC(F)(F)F)cccc21`
### Response 40
